biological target: UniProt:P14902; assay: IDO1 cellular assay in HeLa cells stimulated with IFNγ; type: cell-based; conditions: IFNγ 100 ng/mL, 300 uM L-tryptophan, about 48 hours, fluorescence readout, read-out: HeLa Cell Potency, IC50
assay-endpoint: pIC50
Bear in mind: pIC50 is minus log10 of a mol/L concentration; give just that figure.

Ask | So what's the measured pIC50 for this one? Cc1nccc([C@@H]2CCCc3nc(C4(NC(=O)c5ccc(F)cc5)CC4)ccc32)n1 (single isomer, unassigned)
Reply | 7.38

Ask | Please give the measured pIC50 for this molecule: O=C(NC1(c2ccc3c(n2)CCCC3Oc2ccc(F)nc2)CC1)c1ccc(F)cc1 (stereo not shown) [Example 9]
Reply | 7.61

Ask | So what's the measured pIC50 for this one? O=C(NC1(c2ccc3c(n2)CCCC3Oc2cccc(Cl)c2)CC1)c1ccc(F)cc1 (stereo not shown)
Reply | 8.57

Ask | Bench note: what pIC50 did CN(C)c1ncc(OC2CCCc3nc(C4(NC(=O)c5ccc(F)cc5)CC4)ccc32)cn1 (single isomer, unassigned) [Example 4] show?
Reply | 8.03

Ask | Entry under review: O=C(NC1(c2ccc3c(n2)CCCC3c2cncc(C(F)(F)F)c2)CC1)c1ccc(F)cc1 (stereo not shown) . Reported pIC50?
Reply | 6.67

Ask | Data request, read-out pIC50, for CCC(NC(=O)c1ccc(F)cc1)c1ccc2c(n1)CCCC2c1cncc(C(F)(F)F)c1 (stereo not shown)
Reply | 6.07

Ask | Name the reported pIC50 value associated with the molecule CN(C)c1ncc(OC2CCCc3nc(C4(NC(=O)c5ccc(F)cc5)CC4)ccc32)cn1 (stereo not shown) [Example 14]
Reply | 7.09

* * *

target: IDO1 (Homo sapiens, UniProt P14902); assay: IDO1 cellular assay in HeLa cells stimulated with IFNγ; format: cell-based; settings: IFNγ 100 ng/mL, 300 uM L-tryptophan, about 48 hours, fluorescence readout, read-out: HeLa Cell Potency, IC50
Sequence (P14902 whole entry): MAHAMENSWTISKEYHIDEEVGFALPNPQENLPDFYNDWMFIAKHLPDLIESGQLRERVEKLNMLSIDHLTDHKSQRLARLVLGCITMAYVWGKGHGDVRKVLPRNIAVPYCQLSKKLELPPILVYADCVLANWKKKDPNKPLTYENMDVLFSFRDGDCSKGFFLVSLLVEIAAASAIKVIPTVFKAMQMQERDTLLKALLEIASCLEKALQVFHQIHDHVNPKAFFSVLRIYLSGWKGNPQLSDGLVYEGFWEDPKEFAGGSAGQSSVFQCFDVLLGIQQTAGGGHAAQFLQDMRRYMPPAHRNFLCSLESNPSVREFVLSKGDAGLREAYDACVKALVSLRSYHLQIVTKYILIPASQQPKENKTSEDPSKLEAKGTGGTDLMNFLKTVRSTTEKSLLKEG
assay-endpoint: IC50
Kindly write the number and append the unit.

Ask | Report IC50 for O=C(NC1(c2ccc3c(n2)CCC[C@@H]3Oc2cccc(Cl)c2)CC1)c1ccc(F)cc1 (single isomer, unassigned) [Example 3] please.
Reply | 6.99 nM

Ask | What value of measured IC50 is listed for O=C(NC1(c2ccc3c(n2)CCCC3OCC2CC2)CC1)c1ccc(F)cc1 (single isomer, unassigned) [Example 20] ?
Reply | 95.4 nM

Ask | Can you share its IC50? I mean this compound: Cc1ncc(OC2CCCc3nc(C4(NC(=O)c5ccc(F)cc5)CC4)ccc32)cn1 (stereo not shown) [Example 15]
Reply | 130 nM

Ask | Requested field: IC50. Item: O=C(NC1(c2ccc3c(n2)CCCC3Oc2ccc(F)nc2)CC1)c1ccc(F)cc1 (stereo not shown) [Example 5]
Reply | 12.4 nM

Ask | So what's the measured IC50 for this one? CCC(NC(=O)c1ccc(F)cc1)c1ccc2c(n1)CCCC2c1cncc(F)c1 (stereo not shown) [Example 25]
Reply | 2190 nM

Ask | Please look up its IC50: O=C(NC1(c2ccc3c(n2)CCCC3Nc2cccc(Cl)c2)CC1)c1ccc(F)cc1 (stereo not shown) [Example 17]
Reply | 38.2 nM

Ask | Fill in the blank: the reported IC50 of O=C(NC1(c2ccc3c(n2)CCCC3OCC2CC2)CC1)c1ccc(F)cc1 (stereo not shown) [Example 18] is ____.
Reply | 58.6 nM
